Target: C3b (Homo sapiens, UniProt P01024)
Construct: the α’NT, MG6^α−8, anchor, and C-terminal complement (CTC) domains of the α-chain that are all shared between C3c and C3b; purchased Complement Technology (Tyler, TX, USA)
Sequence (P01024 23-667 limits assumed): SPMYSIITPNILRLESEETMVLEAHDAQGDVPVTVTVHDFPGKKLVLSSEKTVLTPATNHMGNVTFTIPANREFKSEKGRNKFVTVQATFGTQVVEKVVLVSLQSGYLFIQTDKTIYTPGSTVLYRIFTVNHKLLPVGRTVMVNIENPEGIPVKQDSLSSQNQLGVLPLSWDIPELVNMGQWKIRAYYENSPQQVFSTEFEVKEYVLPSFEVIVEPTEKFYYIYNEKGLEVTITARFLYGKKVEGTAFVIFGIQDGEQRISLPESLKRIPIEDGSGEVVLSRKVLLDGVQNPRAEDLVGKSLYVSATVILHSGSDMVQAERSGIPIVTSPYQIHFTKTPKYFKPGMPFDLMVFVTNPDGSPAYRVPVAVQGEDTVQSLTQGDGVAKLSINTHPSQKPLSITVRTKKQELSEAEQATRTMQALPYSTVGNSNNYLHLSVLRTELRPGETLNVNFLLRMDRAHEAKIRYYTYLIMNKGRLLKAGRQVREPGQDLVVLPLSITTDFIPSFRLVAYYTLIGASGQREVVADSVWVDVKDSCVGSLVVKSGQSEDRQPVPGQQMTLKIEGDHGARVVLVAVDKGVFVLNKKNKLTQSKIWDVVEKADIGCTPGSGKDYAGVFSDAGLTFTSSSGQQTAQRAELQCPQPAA
Sequence (P01024 749-1663 limits assumed): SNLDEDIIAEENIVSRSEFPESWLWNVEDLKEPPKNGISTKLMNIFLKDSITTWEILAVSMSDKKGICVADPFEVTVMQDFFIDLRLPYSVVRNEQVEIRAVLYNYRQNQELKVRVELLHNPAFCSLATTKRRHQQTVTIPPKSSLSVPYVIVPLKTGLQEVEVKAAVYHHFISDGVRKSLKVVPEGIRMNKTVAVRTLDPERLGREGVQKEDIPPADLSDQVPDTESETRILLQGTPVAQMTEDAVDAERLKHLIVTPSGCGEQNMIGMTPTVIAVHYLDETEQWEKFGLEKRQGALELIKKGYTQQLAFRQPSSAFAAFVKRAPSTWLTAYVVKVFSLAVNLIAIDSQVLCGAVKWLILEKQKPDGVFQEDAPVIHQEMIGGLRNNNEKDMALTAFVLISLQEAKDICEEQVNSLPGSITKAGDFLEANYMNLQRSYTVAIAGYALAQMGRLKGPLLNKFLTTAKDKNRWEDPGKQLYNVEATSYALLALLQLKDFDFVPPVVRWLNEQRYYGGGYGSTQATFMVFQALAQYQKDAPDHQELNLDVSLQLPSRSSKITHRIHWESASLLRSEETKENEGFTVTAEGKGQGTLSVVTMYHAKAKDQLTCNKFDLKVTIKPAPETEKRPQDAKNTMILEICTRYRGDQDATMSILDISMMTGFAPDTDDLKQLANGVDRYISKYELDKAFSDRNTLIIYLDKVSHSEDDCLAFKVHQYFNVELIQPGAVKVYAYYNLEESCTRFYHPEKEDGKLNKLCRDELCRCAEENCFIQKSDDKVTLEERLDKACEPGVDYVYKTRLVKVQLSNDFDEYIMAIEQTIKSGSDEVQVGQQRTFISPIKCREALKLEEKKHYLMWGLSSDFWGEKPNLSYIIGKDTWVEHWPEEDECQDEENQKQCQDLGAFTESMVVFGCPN
Assay: SPR kinetic binding studies on immobilized C3b
Details: pH 7.4, read-out: ka
Description: All compstatin analogues were characterized concerning affinity and kinetic profiles by surface plasmon resonance (SPR) using a Biacore T200 instrument (Cytiva, Piscataway, USA). Experiments were run at 25 °C in HBST buffer (10 mM HEPES, 150 mM NaCl, 0.05% Tween-20, pH 7.4). […] Association and dissociation rate constants (ka and kd, respectively) were fitted, and the equilibration constant KD was calculated based on the following equation: KD = kd/ka. […]
// values below are reported kon
Give a bare numeral; the unit M⁻¹ s⁻¹ is implied.

Below: 2 molecules and their reported kon.
CC[C@H](C)[C@H](NC(=O)[C@H](N)Cc1ccc(O)cc1)C(=O)N[C@H]1CSSC[C@@H](C(=O)N(C)[C@H](C(N)=O)[C@@H](C)CC)NC(=O)[C@H](CCCNC(N)=O)NC(=O)[C@H](Cc2c[nH]cn2)NC(=O)[C@H](C)NC(=O)CN(C)C(=O)[C@H](Cc2c[nH]c3ccccc23)NC(=O)[C@H](CC(=O)O)NC(=O)[C@H](CCC(N)=O)NC(=O)[C@H](Cc2cn(C)c3ccccc23)NC(=O)[C@H](C(C)C)NC1=O ... 600000
CCCCn1cc(C[C@@H]2NC(=O)[C@H](C(C)C)NC(=O)[C@@H](NC(=O)[C@@H](NC(=O)[C@H](N)Cc3ccc(O)cc3)[C@@H](C)CC)CSSC[C@@H](C(=O)N(C)[C@H](C(N)=O)[C@@H](C)CC)NC(=O)[C@H](CCCNC(=N)N)NC(=O)[C@H](Cc3c[nH]cn3)NC(=O)[C@H](C)NC(=O)CN(C)C(=O)[C@H](Cc3c[nH]c4ccccc34)NC(=O)[C@H](CC(=O)O)NC(=O)[C@H](CCC(N)=O)NC2=O)c2ccccc21 ... 200000

# input Entry CC[C@H](C)[C@H](NC(=O)[C@H](N)Cc1ccc(O)cc1)C(=O)N[C@H]1CSSC[C@@H](C(=O)N(C)[C@H](C(N)=O)[C@@H](C)CC)NC(=O)[C@H](CCCNC(=N)N)NC(=O)[C@H](Cc2c[nH]cn2)NC(=O)[C@H](C)NC(=O)CN(C)C(=O)[C@H](Cc2c[nH]c3ccccc23)NC(=O)[C@H](CC(=O)O)NC(=O)[C@H](CCC(N)=O)NC(=O)[C@H](Cc2cn(CC)c3ccccc23)NC(=O)[C@H](C(C)C)NC1=O : reported kon = ?
# output 700000
